# Test system: MS2 coat protein
# Assay: apparent KD of MS2 coat protein; designed switch direction (-1 OFF switch, 1 ON switch): -1; higher = weaker reporter binding
# Reported Conditions: input ligand: FMN 200 uM
Could you please report measured apparent KD of MS2 coat protein for the items listed next?
Provide the reading as a plain figure in nM.

### Prompt Return reported apparent KD of MS2 coat protein; argument: GGGCUUAAAGGAUAUGCAAGGAGCCACAUGAGGAUCACCCAUGUACAACCUCAGUCCCUGGUAGAAGGUUACGCAA [whoooo] (Eterna round: R97, puzzle: Exclusion 5)
### Response 35

### Prompt Return reported apparent KD of MS2 coat protein; argument: GACUAUUCGUAGGAUAUACUACUUAGCUAUGGAGUAGAAGGACGAACAUGAGGAUCACCCAUGUGGGACCCGGG [Eternabot (L2) Solution 31] (Eterna round: R97, puzzle: Exclusion 6)
### Response 125

### Prompt Return reported apparent KD of MS2 coat protein; argument: AAUACAAGCUAUUGAUCCCACAUGAGGAUCACCCAUGUAGCUGGCCGUGAGACCAGCUUUACAAUAGCUCGUCUUAU [Sensor-V1 #49] (Eterna round: R97, puzzle: Sensor, turn-off variant 1)
### Response 75.2

### Prompt Return reported apparent KD of MS2 coat protein; argument: AAAAGUUAAGGAUAUACUUGAGGAUCACCCAAGUAGGUGGCUUCAGCCGGGAAACGGCGUAGAAGGUAGCAGAA [Atorin] (Eterna round: R97, puzzle: Exclusion 3)
### Response 65.2

### Prompt Return reported apparent KD of MS2 coat protein; argument: ACUGACAUGAGGAUCACCCAUGUAGAUGUGUUCGCAAGCCUCUAGGAUAUAUCUAACCUACCCGGAUAGAAGGAGAGGUUCCCU [Eternabot solution 9] (Eterna round: R96, puzzle: Exclusion NG 3)
### Response 25.2
